# Tested on: Vero TMPRSS2 cells
# Test summary: Cytotoxicity at single concentration, CellTiter-Glo ATP quantitation
# Assay type: cell-based, African Green Monkey
# Condition context: 125 uM, 72 hours
Each record here notes measured % Cell Viability Average.

As a guide, the following entries are already answered.
CCCCCCC#Cc1cncc(-c2nnc(SCc3cc([N+](=O)[O-])cc([N+](=O)[O-])c3)n2C)c1 [drawing 104] ... 41.70%
CCCCCCC#Cc1cncc(-c2nnc(SCc3cccc(Cl)c3)n2C)c1 [drawing 118] ... 1.53%
CCCCCCC#Cc1cncc(C(=O)NN)c1 ... 36.66%
CCCCCCC#Cc1cncc(-c2nnc(SCc3ccc(Cl)cc3)[nH]2)c1 [drawing 119] ... 1.41%

Answer with the recorded % Cell Viability Average of CCCCCCC#Cc1cncc(-c2nnc(SCc3ccc(Cl)c(F)c3)n2C)c1 [drawing 101] only. 50.78%

Name the recorded % Cell Viability Average of the compound listed here: CCCCCCC#Cc1cncc(-c2nnc(SCc3cc(F)cc(F)c3)n2C)c1 [drawing 123] 0.96%

Please look at this compound and report its % Cell Viability Average: CCCCCCC#Cc1cncc(-c2nnc(SCc3ccc(Cl)cc3)[nH]2)c1 [drawing 97] 67.98%

Values were extracted from patent US20250136574A1.
